molecular target: T1, apical domain of cynomolgus CD71 (cynomolgus, UniProt A0A2K5X958 189-383); assay: primary ELISA, signal ratio to HSA
T1 construct: domain: apical domain; also called Cyno apical domain
T1 sequence (A0A2K5X958 entry or part of it): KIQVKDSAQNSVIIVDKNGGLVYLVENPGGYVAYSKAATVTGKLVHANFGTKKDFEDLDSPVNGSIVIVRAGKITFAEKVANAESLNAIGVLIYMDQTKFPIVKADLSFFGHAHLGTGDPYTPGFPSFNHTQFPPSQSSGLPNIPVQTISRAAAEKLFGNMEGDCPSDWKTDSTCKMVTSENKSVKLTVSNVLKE
readout type: Cyno apical domain:HSA
One number for each entry.

binder: CD71-binding FN3 domain of SEQ ID NO: 167 (designed binder) MSLPAPKNLVVSRVTEDSARLSWTAPDAAFDSFFIGYLEPQPPGEAIVLTVPGSERSYDLTGLKPGTEYNVTIQGVKGGFPSVPLSAAFTT
measured number: 83

Consider the record given below.
// Cyno apical domain:HSA value for CD71-binding FN3 domain of SEQ ID NO: 206 (designed binder) MSLPAPKNLVASRVTEDSARLSWTAPDAAFDSFEIGYFENLYLGEAIVLTVPGSERSYDLTGLKPGTEYWVQIGGVKGGNWSAPLSAIFTT : 67
